log10(EC50) values for the molecules below.
Target: human GR (Homo sapiens, UniProt P04150)
Sequence (P04150 whole entry): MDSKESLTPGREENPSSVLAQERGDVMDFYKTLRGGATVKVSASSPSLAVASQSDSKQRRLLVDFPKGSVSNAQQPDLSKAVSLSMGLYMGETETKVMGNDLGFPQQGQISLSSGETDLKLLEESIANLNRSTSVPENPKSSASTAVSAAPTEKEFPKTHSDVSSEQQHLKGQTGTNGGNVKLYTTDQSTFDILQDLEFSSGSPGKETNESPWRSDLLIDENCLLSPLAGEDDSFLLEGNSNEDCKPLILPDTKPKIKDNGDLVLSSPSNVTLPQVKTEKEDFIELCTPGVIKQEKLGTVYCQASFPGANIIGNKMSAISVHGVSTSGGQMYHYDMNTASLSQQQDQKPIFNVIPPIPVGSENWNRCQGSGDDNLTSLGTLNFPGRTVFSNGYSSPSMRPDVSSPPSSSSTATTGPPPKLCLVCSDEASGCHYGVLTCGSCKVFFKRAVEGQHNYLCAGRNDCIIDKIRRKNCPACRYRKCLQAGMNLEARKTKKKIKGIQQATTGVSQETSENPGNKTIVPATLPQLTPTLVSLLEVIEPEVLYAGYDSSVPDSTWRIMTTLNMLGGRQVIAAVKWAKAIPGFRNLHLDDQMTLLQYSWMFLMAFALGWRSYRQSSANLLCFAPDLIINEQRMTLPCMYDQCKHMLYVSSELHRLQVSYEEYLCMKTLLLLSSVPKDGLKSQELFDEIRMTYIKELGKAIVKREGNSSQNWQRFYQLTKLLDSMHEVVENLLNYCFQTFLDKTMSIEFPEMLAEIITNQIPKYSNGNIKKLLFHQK
Test: Trans-Activation Modulation of Glucocorticoid Receptor (GRAMMER), MMTV-LUC reporter, agonist mode
Assay type: cell-based
Parameters: endogenous in cells
Conditions: A549 cells; inflection point; read-out: Transactivation A549 Cells GRAMMER IP
# values: log10(EC50), units nM

Field: example entries. Status: answers known.
| MOLECULE | log10(EC50) |
| --- | --- |
| C[C@]12Cc3cnn(-c4ccc(F)cc4)c3C=C1CC[C@@H]2CN(CC1CC1)S(=O)(=O)c1ccc(-c2ccccc2)cc1 | 2.79 |
| CCN(C[C@H]1CCC2=Cc3c(cnn3-c3ccc(F)cc3)C[C@@]21C)S(=O)(=O)CC(F)(F)F | 2.44 |
| C[C@H](O)CN(C[C@H]1CCC2=Cc3c(cnn3-c3ccc(F)cc3)C[C@@]21C)S(=O)(=O)Cc1ccccc1C(=O)O | 3.65 |
| CNC(=O)Nc1ccc(S(=O)(=O)N(CC2CC2)C[C@H]2CCC3=Cc4c(cnn4-c4ccc(F)cc4)C[C@@]32C)c(Cl)c1 | 2.54 |
| C[C@]12Cc3cnn(-c4ccc(F)cc4)c3C=C1CC[C@@H]2CN(CCc1ccncc1)S(=O)(=O)CC(F)(F)F | 2.98 |
| Cc1noc(C)c1S(=O)(=O)N(CC1CCCO1)C[C@H]1CCC2=Cc3c(cnn3-c3ccc(F)cc3)C[C@@]21C (some centres unmarked) | 2.64 |
| CC(=O)Nc1ccc(S(=O)(=O)N(CC2CC2)C[C@H]2CCC3=Cc4c(cnn4-c4ccc(F)cc4)C[C@@]32C)cc1 | 2.60 |
| C[C@]12Cc3cnn(-c4ccc(F)cc4)c3C=C1CC[C@@H]2CN(CCO)S(=O)(=O)c1ccc(F)c(Cl)c1 | 3.08 |
| C[C@]12Cc3cnn(-c4ccc(F)cc4)c3C=C1CC[C@@H]2CN(CCO)S(=O)(=O)c1ccc(Oc2cccc(Cl)c2C#N)cc1 | 2.93 |
| Cc1ccc(S(=O)(=O)N(CC#N)C[C@H]2CCC3=Cc4c(cnn4-c4ccc(F)cc4)C[C@@]32C)s1 | 2.92 |

I have this molecule here, `C[C@]12Cc3cnn(-c4ccc(F)cc4)c3C=C1CC[C@@H]2CN(CCO)S(=O)(=O)c1ccccc1Cl` , and I need its recorded log10(EC50). 2.66

Any idea what its log10(EC50) is? The molecule is `COCCN(C[C@H]1CCC2=Cc3c(cnn3-c3ccc(F)cc3)C[C@@]21C)S(C)(=O)=O` 2.18

log10(EC50) lookup needed for `C[C@]12Cc3cnn(-c4ccc(F)cc4)c3C=C1CC[C@@H]2CN(CCO)S(=O)(=O)Cc1ccccc1C(N)=O` , thanks. 3.09

Fill in: log10(EC50) of `C[C@]12Cc3cnn(-c4ccc(F)cc4)c3C=C1CC[C@@H]2CN(CC1(O)CCCCC1)S(=O)(=O)c1ccccc1F` is ___ 1.95

* * *

# Emax values compiled below
Biological target: UniProt:P04150
Assay: Transrepression Assay (GITAR), TNFα-β-lactamase reporter in U937 cells
Assay type: cell-based
Set-up: U937 cells contain an endogenous glucocorticoid receptor (GR); endogenous in cells; host or cells: U937 cells stably transfected with the TNF-alpha promoter/beta-lactamase reporter
Settings: U-937, activity repressed by 100 nM dexamethasone alone set as 100%; read-out: maximal activity in the transrepression (GITAR) assay

Field: example entries. Status: answers known.
| COMPOUND_STRUCTURE_STRING | ASSAY_RESULT |
| --- | --- |
| Cc1oncc1S(=O)(=O)N(CCO)C[C@H]1CCC2=Cc3c(cnn3-c3ccc(F)cc3)C[C@@]21C | > 5% |
| C[C@]12Cc3cnn(-c4ccc(F)cc4)c3C=C1CC[C@@H]2CN(CCO)S(=O)(=O)c1ccccc1F | > 5% |
| C[C@H](O)CN(C[C@H]1CCC2=Cc3c(cnn3-c3ccc(F)cc3)C[C@@]21C)S(=O)(=O)CC(F)(F)F | > 5% |

Then this compound:
Entry `COC(=O)c1ccccc1CS(=O)(=O)N(CCc1ccccc1F)C[C@H]1CCC2=Cc3c(cnn3-c3ccc(F)cc3)C[C@@]21C` : reported Emax = ? > 5%
